All values here come from patent US7498343B2.

Tested on: Mycobacterium tuberculosis (strain H37RV)
test_name: In-vitro method for testing compounds against M. tuberculosis (resazurin growth inhibition, MIC)
Format: cell-based
protocol_conditions: MIC data representing IC90's, 7 days incubation, resazurin fluorescence
value_kind: MIC (microgram/ml)

* COc1nc2ccc(Br)cc2cc1C(c1ccccc1)C(O)(CCN1CCOCC1)c1cccc2ccccc12 (single isomer, unassigned) [Compound 158] | 59.76
* COc1nc2ccc(C#N)cc2cc1C(c1ccccc1)C(O)(CCN(C)C)c1cccc(F)c1 (single isomer, unassigned) [Compound 180] | 3.73
* COc1nc2ccc(-c3ccccc3)cc2cc1C(c1ccccc1)C(O)(CCN(C)C)c1ccccc1 (single isomer, unassigned) [Compound 27] | 7.97
* COc1nc2cc(Br)ccc2cc1C(c1ccccc1)C(O)(CCN(C)C)c1cccc2ccccc12 (single isomer, unassigned) [Compound 217] | 44.13
* COc1nc2ccc(Br)cc2cc1C(c1ccccc1)C(O)(CCN(C)C)c1ccc2c(c1)OCCO2 (racemic) [Compound 78] | 44.76
* COc1nc2ccc(Br)cc2cc1C(c1ccccc1)C(O)(CCc1ccccc1)CCN(C)C (single isomer, unassigned) [Compound 96] | 21.24
* COc1nc2ccc(Br)cc2cc1C(c1ccccc1)C(O)(CCN1CCOCC1)c1ccccc1 (racemic) [Compound 123] | 54.75
* COc1nc2ccc(Br)cc2cc1C(c1ccccc1)C(O)(CCCN1CCOCC1)c1ccc2ccccc2c1 (single isomer, unassigned) [Compound 198] | 61.16
* COc1nc2ccc(Br)cc2cc1C(c1ccccc1)C(O)(CCN(C)C)c1ccc2c(Br)cccc2c1 (single isomer, unassigned) [Compound 127] | 25.26
* COc1nc2ccc(Br)cc2cc1C(c1ccccc1)C(O)(CCN(C)C)C1CCN(C(=O)c2ccccc2)CC1 (single isomer, unassigned) [Compound 202] | 48.98

---

System: Mycobacterium tuberculosis (strain H37RV)
test_name: In-vitro method for testing compounds against M. tuberculosis (resazurin growth inhibition, MIC)
Type: cell-based
protocol_conditions: MIC data representing IC90's, 7 days incubation, resazurin fluorescence
value_kind: MIC (microgram/ml)

• COc1nc2ccc(Br)cc2cc1C(c1ccccc1)C(O)(CCCN(C)C)c1cccc2ccccc12 (single isomer, unassigned) [Compound 199] = 47.47
• COc1nc2ccc(Br)cc2cc1C(c1ccccc1)C(O)(CCCCN(C)C)c1ccccc1 (single isomer, unassigned) [Compound 66] = 1.69
• COc1nc2ccc(C)cc2cc1C(c1ccccc1)C(O)(CCN(C)C)c1ccccc1 (single isomer, unassigned) [Compound 22] = 1.11

---

Tested on: Mycobacterium tuberculosis (strain H37RV)
test_name: In-vitro method for testing compounds against M. tuberculosis (resazurin growth inhibition, MIC)
Format: cell-based
protocol_conditions: MIC data representing IC90's, 7 days incubation, resazurin fluorescence
Values of MIC strictly less than 9 microgram/ml map to MET, and values of at least 9 microgram/ml map to NOT MET.

- COc1nc2ccc(Br)cc2cc1C(c1ccccc1)C(O)(CCN(C)C)c1ccccc1F (racemic) [Compound 69]: MET
- CN(C)CCC(O)(c1ccccc1)C(c1ccccc1)c1cc2cc(Br)ccc2n(C)c1=O (single isomer, unassigned) [Compound 107]: NOT MET
- COc1nc2ccc(Br)cc2cc1C(c1ccccc1)C(O)(CCN1CCCCC1)c1ccc2cc(Br)ccc2c1 (stereo not shown): NOT MET
- COc1ccc2nc(OC)c(C(c3ccccc3)C(O)(CCN(C)C)c3ccccc3)cc2c1 (single isomer, unassigned) [Compound 34]: NOT MET
- COc1nc2ccc(Br)cc2cc1C(c1ccccc1)C(O)(CCn1ccnc1)c1cccc2ccccc12 (single isomer, unassigned) [Compound 187]: NOT MET
- COc1nc2ccc(Br)cc2cc1C(c1ccccc1)C(O)(CCN1CCCC1)c1ccc2cc(Br)ccc2c1 (single isomer, unassigned): NOT MET
- COc1nc2ccccc2cc1C(c1ccccc1)C(O)(CCN(C)C)c1cccc(F)c1 (racemic) [Compound 94]: MET
- COc1nc2cc(C)c(Br)cc2cc1C(c1ccccc1)C(O)(CCN(C)C)c1cccc(F)c1 (single isomer, unassigned) [Compound 215]: MET
- COc1nc2ccc(Br)cc2cc1C(c1ccccc1)C(O)(CCN(C)C)c1cccc2ccccc12 (stereo not shown) [Compound 13]: NOT MET
- CSc1nc2ccc(Br)cc2cc1C(c1ccccc1)C(O)(CCN(C)C)c1ccccc1 (single isomer, unassigned) [Compound 33]: MET
- CN(C)CCC(O)(c1cccc2ccccc12)C(c1ccccc1)c1cc2cc(Br)ccc2[nH]c1=O (single isomer, unassigned): MET
- COc1nc2ccc(Br)cc2cc1C(c1ccccc1)C(O)(CC[N+](C)(C)C)c1cccc2ccccc12.[I-] (single isomer, unassigned) [Compound 121]: MET

---

System: Mycobacterium tuberculosis (strain H37RV)
test_name: In-vitro method for testing compounds against M. tuberculosis (resazurin growth inhibition, MIC)
Assay type: cell-based
protocol_conditions: MIC data representing IC90's, 7 days incubation, resazurin fluorescence
value_kind: MIC (microgram/ml)

- CN(C)CCC(O)(c1ccccc1)C(c1ccccc1)c1cc2cc(Br)ccc2n(C)c1=O (single isomer, unassigned) [Compound 106]: 55.55
- COc1nc2ccc(Br)cc2cc1C(c1ccccc1)C(O)(CCn1cncn1)c1ccccc1 (racemic) [Compound 53]: 52.94
- COc1nc2ccc(Br)cc2cc1C(c1ccccc1)C(O)(CCCN1CCOCC1)c1ccc2ccccc2c1 (single isomer, unassigned) [Compound 161]: 61.16
- COc1ccc2nc(OC)c(C(c3ccccc3)C(O)(CCN(C)C)c3cccc4ccccc34)cc2c1 (single isomer, unassigned) [Compound 97]: 20.17
- COc1nc2ccc(Br)cc2cc1C(c1ccccc1)C(O)(CCN(C)C)c1cc(F)ccc1F (stereo not shown) [Compound 111]: 1.71
- COc1nc2ccc(Cl)cc2cc1C(c1ccccc1)C(O)(CCN(C)C)c1cccc2ccccc12 (single isomer, unassigned) [Compound 119]: 10.20
- COc1nc2ccc(Br)cc2cc1C(c1ccccc1)C(O)(CCN(C)C)c1ccc2ccccc2c1 (racemic) [Compound 45]: 1.76
- COc1nc2ccc(Br)cc2cc1C(c1ccccc1)C(O)(CCN(C)C)c1ccc(F)cc1 (single isomer, unassigned) [Compound 181]: 8.30
- COc1nc2ccc(Br)cc2cc1C(c1ccccc1)C(O)(CC[N+](C)(C)[O-])c1cccc2ccccc12 (racemic) [Compound 101]: 9.06
- COc1nc2ccc(Br)cc2cc1C(c1ccccc1)C(O)(CCN(C)C)c1cc(F)cc(F)c1 (stereo not shown) [Compound 117]: 1.71
- COCCOc1nc2ccc(Br)cc2cc1C(c1ccccc1)C(O)(CCN(C)C)c1cccc(F)c1 (single isomer, unassigned) [Compound 164]: 0.36
- COc1nc2cc(C)c(Br)cc2cc1C(c1ccccc1)C(O)(CCN(C)C)c1cc(F)cc(F)c1 (single isomer, unassigned) [Compound 227]: 1.76
- COc1ccc2cc(C(O)(CCN(C)C)C(c3ccccc3)c3cc4cc(Br)ccc4nc3OC)ccc2c1 (single isomer, unassigned) [Compound 163]: 46.51

---

Test system: Mycobacterium tuberculosis (strain H37RV)
test_name: In-vitro method for testing compounds against M. tuberculosis (resazurin growth inhibition, MIC)
Assay type: cell-based
protocol_conditions: MIC data representing IC90's, 7 days incubation, resazurin fluorescence
value_kind: MIC (microgram/ml)

• COc1nc2ccc(Br)cc2cc1C(c1ccccc1)C(O)(CCN1CCN(C)CC1)c1ccc2cc(Br)ccc2c1 (single isomer, unassigned) [Compound 154] = 68.95
• COc1nc2ccc(-c3ccccc3)cc2cc1C(c1ccccc1)C(O)(CCN(C)C)c1cccc2ccccc12 (racemic) [Compound 85] = 8.76
• COc1nc2ccc(Br)cc2cc1C(c1ccccc1)C(O)(CCN(C)C)c1cc(F)cc(F)c1 (stereo not shown) [Compound 115] = 0.07
• COc1ccc2nc(OC)c(C(c3ccccc3)C(O)(CCN(C)C)c3cccc(F)c3)cc2c1 (single isomer, unassigned) [Compound 134] = 7.52
• COc1nc2ccc(Br)cc2cc1C(c1ccc(Cl)cc1)C(O)(CCN(C)C)c1cccc2ccccc12 (racemic) [Compound 74] = 59.00
• COc1nc2ccc(Br)cc2cc1C(c1ccccc1)C(O)(CCN(C)C)c1ccc2c(c1)OCO2 (racemic) [Compound 76] = 1.74
• COc1nc2ccc(Br)cc2cc1C(c1ccccc1)C(O)(CCN1CCN(C)CC1)c1ccc2ccccc2c1 (racemic) [Compound 136] = 16.81
• CSc1nc2ccc(Br)cc2cc1C(c1ccccc1)C(O)(CCN(C)C)c1ccccc1 (single isomer, unassigned) [Compound 32] = 0.33
• COc1ccc2cc(C(O)(CCN(C)C)C(c3ccccc3)c3cc4cc(Br)ccc4nc3OC)ccc2c1 (single isomer, unassigned) [Compound 162] = 9.28
• COc1nc2ccc(Br)cc2cc1C(c1ccccc1)C(O)(CC[N+](C)(C)[O-])c1cccc2ccccc12 (single isomer, unassigned) [Compound 100] = 45.40
• COc1nc2ccc(Br)cc2cc1C(c1ccccc1)C(O)(CCCN(C)C)c1cccc2ccccc12 (single isomer, unassigned) [Compound 186] = 56.96
• COc1nc2ccc(Br)cc2cc1C(c1ccccc1)C(O)(CCCN(C)C)c1ccc2ccccc2c1 (single isomer, unassigned) [Compound 126] = 56.96
• COc1nc2ccc(Br)cc2cc1C(c1ccccc1)C(O)(CCN1CCN(C)CC1)c1cc(Br)cc2ccccc12 (single isomer, unassigned) [Compound 151] = 13.76
